Assay: Nonclinical pharmacokinetics in rats
Design: species or system rat
Settings: female, in vivo; rat IV infusion 3 hours, F, 167 ng/kg/min
Method: A sandwich immunoassay was developed using an affinity purified goat polyclonal antibody, specific to h-SCP that was pre-coated onto a microplate with integrated electrodes. h-SCP molecules present in the sample will bind to the capture polyclonal antibody coated on the plate. […] This conjugated antibody will bind to the h-SCP molecules captured on the microplate and the quantity of analyte was determined by electrochemiluminescence. […]
result_type: Cmax (ng/mL)
Report only the number, with the unit ng/mL understood.

## Task Any idea what Cmax was measured for H-TKFTLSLDVPTNIMNLLFNIAKAKNLRAQAAANAHLMAQI-NH2 [SEQ ID NO: 1] ?
## Result 0.683

----------
experiment: Nonclinical pharmacokinetics in rats; set-up: species or system rat; details: male, in vivo; rat IV infusion 3 hours, M, 83.3 ng/kg/min
result_type: AUC(0-inf) (ng·h/mL)
Response body: numeric value in ng·h/mL, unit text excluded.

## Task For the substance H-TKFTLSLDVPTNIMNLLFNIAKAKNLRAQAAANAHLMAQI-NH2 [SEQ ID NO: 1] , what AUC(0-inf) is on record?
## Result 1.24

----------
assay: Human pharmacokinetics, healthy subjects, 7.5-hour continuous ascending dose IV infusion; format: in vivo; conditions: human, in vivo, healthy subjects, infusion rate 18/54/72 ng/kg/min, median, N = 3
result_type: Tmax (h)
Just the number please, in h, no unit attached.

## Task Look at this substance and give its reported Tmax. H-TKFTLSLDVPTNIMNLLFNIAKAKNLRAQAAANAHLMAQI-NH2 [SEQ ID NO: 1]
## Result 5.5

----------
assay: Nonclinical pharmacokinetics in cynomolgus monkeys; conditions: female, cynomolgus monkey, in vivo, iv, t1/2 alpha
result_type: half-life (min)
Write it as a number; the unit min goes unstated.

## Task Which half-life value is on record for H-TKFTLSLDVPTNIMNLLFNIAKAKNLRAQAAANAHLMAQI-NH2 [SEQ ID NO: 1] ?
## Result 3.1
